molecular target: Signal transducer and activator of transcription 3 (Mus musculus) (UniProt P42227); test: Inhibition of IL6-induced STAT3 phosphorylation at S727 in CD4+ T lymphocytes isolated from C57BL/6J mouse preincubated for 2 hrs followed by activation with plate-bound anti-CD3/anti-CD28 for 15 mins by Western blot analysis
Sequence (P42227 whole entry): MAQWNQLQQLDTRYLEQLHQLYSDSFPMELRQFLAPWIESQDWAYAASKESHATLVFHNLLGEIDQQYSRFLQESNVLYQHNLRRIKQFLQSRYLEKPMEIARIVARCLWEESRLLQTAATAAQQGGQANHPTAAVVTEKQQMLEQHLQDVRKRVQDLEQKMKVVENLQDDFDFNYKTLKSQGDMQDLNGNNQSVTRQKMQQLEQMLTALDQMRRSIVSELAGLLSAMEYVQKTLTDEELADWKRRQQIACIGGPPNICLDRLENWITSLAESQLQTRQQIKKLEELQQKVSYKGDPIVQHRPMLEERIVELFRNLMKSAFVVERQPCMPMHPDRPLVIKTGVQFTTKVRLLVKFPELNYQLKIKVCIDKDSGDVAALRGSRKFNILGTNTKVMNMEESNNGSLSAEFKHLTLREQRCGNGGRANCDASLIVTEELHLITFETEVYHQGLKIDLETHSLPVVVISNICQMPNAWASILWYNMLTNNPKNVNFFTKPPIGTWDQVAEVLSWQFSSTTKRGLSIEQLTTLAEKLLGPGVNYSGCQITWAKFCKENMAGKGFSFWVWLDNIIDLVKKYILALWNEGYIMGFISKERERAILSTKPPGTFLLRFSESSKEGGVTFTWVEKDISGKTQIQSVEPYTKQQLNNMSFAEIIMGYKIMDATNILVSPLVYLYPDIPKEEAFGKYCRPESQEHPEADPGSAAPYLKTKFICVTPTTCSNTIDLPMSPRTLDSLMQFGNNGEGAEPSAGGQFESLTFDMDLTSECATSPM
Calls of active or inactive are those of the source. The calls are words filed in the database; no cut-off is given here.
readout type: inhibition

Here's what some known entries look like.
CC(C)(C)C(=O)OCOP(=O)(OCOC(=O)C(C)(C)C)C(F)(F)c1ccc(/C=C/C(=O)N[C@H](C(=O)N2CCC[C@H]2C(=O)Nc2ccccc2)C(C)(C)C)cc1 = inactive
CN(C(=O)[C@@H]1CCCN1C(=O)[C@@H](NC(=O)/C=C/c1ccc(C(F)(F)P(=O)(OCOC(=O)C(C)(C)C)OCOC(=O)C(C)(C)C)cc1)C(C)(C)C)c1ccccc1 = inactive
C/C(=C\C(=O)N[C@H](C(=O)N1CCC[C@H]1C(=O)N(C)C1CCCCC1)C(C)(C)C)c1ccc(C(F)(F)P(=O)(OCOC(=O)C(C)(C)C)OCOC(=O)C(C)(C)C)cc1 = inactive
CC(C)(C)C(=O)OCOP(=O)(OCOC(=O)C(C)(C)C)C(F)(F)c1ccc(/C=C/C(=O)N[C@H](C(=O)N2CCC[C@H]2C(=O)N(c2ccccc2)c2ccc(I)cc2)C(C)(C)C)cc1 = inactive
CC(C)(C)C(=O)OCOP(=O)(OCOC(=O)C(C)(C)C)C(F)(F)c1ccc(/C=C/C(=O)N[C@H](C(=O)N2CCC[C@H]2C(=O)N(c2ccccc2)c2ccccc2)C(C)(C)C)cc1 = inactive

Now, please, on to the next molecule.
// inhibition lookup, key: C/C(=C\C(=O)N[C@H](C(=O)N1CCC[C@H]1C(=O)N(C)c1ccccc1)C(C)(C)C)c1ccc(C(F)(F)P(=O)(OCOC(=O)C(C)(C)C)OCOC(=O)C(C)(C)C)cc1
inactive

---

biological target: Signal transducer and transcription activator 6 (Mus musculus); test: Inhibition of IL4-induced STAT6 phosphorylation at Y641 in CD4+ T lymphocytes isolated from C57BL/6J mouse preincubated for 2 hrs followed by activation with plate-bound anti-CD3/anti-CD28 and IL4 for 15 mins by Western blot analysis; type: cell-based
Active and inactive are the calls of the source. The calls are words filed in the database; no cut-off is given here.
Respond using exactly one of the listed classes: Y for active, N for inactive

C/C(=C\C(=O)N[C@H](C(=O)N1CCC[C@H]1C(=O)N(C)c1ccccc1)C(C)(C)C)c1ccc(C(F)(F)P(=O)(OCOC(=O)C(C)(C)C)OCOC(=O)C(C)(C)C)cc1 = Y

Would you mind telling me which call this test gave CN(C(=O)[C@@H]1CCCN1C(=O)[C@@H](NC(=O)/C=C/c1ccc(C(F)(F)P(=O)(OCOC(=O)C(C)(C)C)OCOC(=O)C(C)(C)C)cc1)C(C)(C)C)c1ccccc1 ?
Y

Here is the next molecule: CC(C)(C)C(=O)OCOP(=O)(OCOC(=O)C(C)(C)C)C(F)(F)c1ccc(/C=C/C(=O)N[C@H](C(=O)N2CCC[C@H]2C(=O)Nc2ccccc2)C(C)(C)C)cc1
Y

Try the molecule CC(C)(C)C(=O)OCOP(=O)(OCOC(=O)C(C)(C)C)C(F)(F)c1ccc(/C=C/C(=O)N[C@H](C(=O)N2CCC[C@H]2C(=O)N(c2ccccc2)c2ccccc2)C(C)(C)C)cc1
Y

Thanks! And C/C(=C\C(=O)N[C@H](C(=O)N1CCC[C@H]1C(=O)N(C)C1CCCCC1)C(C)(C)C)c1ccc(C(F)(F)P(=O)(OCOC(=O)C(C)(C)C)OCOC(=O)C(C)(C)C)cc1 ?
Y

For CC(C)(C)C(=O)OCOP(=O)(OCOC(=O)C(C)(C)C)C(F)(F)c1ccc(/C=C/C(=O)N[C@H](C(=O)N2CCC[C@H]2C(=O)N(c2ccccc2)c2ccc(I)cc2)C(C)(C)C)cc1 then?
N

Value source: ChEMBL document CHEMBL3739303
